// data source = ChEMBL document CHEMBL3885861

Reported TERMINAL_BW values for the following molecules.
# Species: Rattus norvegicus
# experimentDescription: Open TG-GATES - Regimen: Daily Repeat
# Type: toxicity, organism-based, Sprague-Dawley
# Design: regimen Daily Repeat, gender Male, age 6 weeks
# testParameters: in vivo, po, 1000 mg/kg, […], route gavage, dose level High, time 14 day
Quick note: unit goes after the number.

[Q] Param item = CC(=O)[C@@]1(O)CC[C@H]2[C@@H]3C=C(Cl)C4=CC(=O)CC[C@]4(C)[C@H]3CC[C@@]21C [CHLORMADINONE] ; retrieve measured TERMINAL_BW.
[A] 286.4 g

[Q] Returns the measured TERMINAL_BW for the input molecule. Input: CC(S)C(=O)NCC(=O)O (centres undefined) [TIOPRONIN]
[A] 296.9 g

[Q] Any idea what its TERMINAL_BW is? The molecule is CCCCNC(=O)NS(=O)(=O)c1ccc(C)cc1 [TOLBUTAMIDE]
[A] 306.7 g

[Q] Which TERMINAL_BW reading was recorded for the molecule O=C(O)c1ccccc1Nc1ccccc1 [FENAMIC ACID] ?
[A] 281.5 g

----------
The following compounds are listed with their measured TP values.
# Species on record: Rattus norvegicus
# experimentDescription: Open TG-GATES - Regimen: Daily Repeat
# Type: toxicity, organism-based, Sprague-Dawley
# Parameters: regimen Daily Repeat, gender Male, age 6 weeks
# testParameters: in vivo, po, 300 mg/kg, 72 h, tissue Plasma, route gavage, dose level Middle, time 3 day
Just the number plus its unit, please.

1) CC(=O)[C@@]1(O)CC[C@H]2[C@@H]3C=C(Cl)C4=CC(=O)CC[C@]4(C)[C@H]3CC[C@@]21C [CHLORMADINONE]
5.8 g/dL
2) CC(S)C(=O)NCC(=O)O (centres undefined) [TIOPRONIN]
5.5 g/dL
3) CCCCNC(=O)NS(=O)(=O)c1ccc(C)cc1 [TOLBUTAMIDE]
5.5 g/dL

[Q] Give the measured TP of O=C(O)c1ccccc1Nc1ccccc1 [FENAMIC ACID] .
[A] 5.7 g/dL

----------
# Species on record: Rattus norvegicus
# experimentDescription: Open TG-GATES - Regimen: Daily Repeat
# Assay type: toxicity, organism-based, Sprague-Dawley
# Parameters: regimen Daily Repeat, gender Male, age 6 weeks
# testParameters: in vivo, po, 0 mg/kg, […], tissue Blood, route gavage, dose level Control, time 14 day
endpointName: Neu (%)
Response body: numeric value in %, unit text excluded.

// solved cases for Neu follow
1. CC(=O)[C@@]1(O)CC[C@H]2[C@@H]3C=C(Cl)C4=CC(=O)CC[C@]4(C)[C@H]3CC[C@@]21C
15.2
2. CC(S)C(=O)NCC(=O)O (stereo not drawn)
14
3. CCN(CC)C(=S)SSC(=S)N(CC)CC
13.4
4. CCCCNC(=O)NS(=O)(=O)c1ccc(C)cc1 [TOLBUTAMIDE]
18
5. NS(=O)(=O)c1cc(C(=O)O)c(NCc2ccco2)cc1Cl [FUROSEMIDE]
14.2

[Q] For the compound shown here, Nc1ccc(Cc2ccc(N)cc2)cc1 , give the reported Neu.
[A] 22.6

[Q] Quick check: Neu of CCCCC1C(=O)N(c2ccccc2)N(c2ccccc2)C1=O ?
[A] 10.2

----------
# Species on record: Rattus norvegicus
# experimentDescription: Open TG-GATES - Regimen: Daily Repeat
# Format: toxicity, organism-based, Sprague-Dawley
# Parameters: regimen Daily Repeat, gender Male, age 6 weeks
# testParameters: in vivo, po, 100 mg/kg, […], tissue Plasma, route gavage, dose level Low, time 28 day
Documented K across a set of compounds
Numeric answer only, unit meq/L assumed.

1. CC(=O)[C@@]1(O)CC[C@H]2[C@@H]3C=C(Cl)C4=CC(=O)CC[C@]4(C)[C@H]3CC[C@@]21C [CHLORMADINONE]
4.2
2. CCCCNC(=O)NS(=O)(=O)c1ccc(C)cc1 [TOLBUTAMIDE]
3.9
3. O=C(O)c1ccccc1Nc1ccccc1 [FENAMIC ACID]
3.9

Proceeding to the next compound to report its K.
[Q] Which K value is on record for CC(S)C(=O)NCC(=O)O (centres undefined) [TIOPRONIN] ?
[A] 4
